TEST_SYSTEM: T1, secretory phospholipase A2 (sPLA2) (Homo sapiens, UniProt P14555 P14555:21-144)
T1 sequence: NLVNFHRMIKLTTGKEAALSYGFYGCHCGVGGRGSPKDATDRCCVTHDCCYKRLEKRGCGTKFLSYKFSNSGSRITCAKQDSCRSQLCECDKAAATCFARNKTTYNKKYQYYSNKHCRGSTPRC
PROTOCOL_DETAILS: filter; biphasic, Kd2 450 nM, mole fraction 0.50; TBSC, 37 C
COND: tags: supplied by Eli Lilly
PROPERTY_LABEL: pKd
Answers are plain numbers, as −log10 of the molar value.

Return reported pKd; argument: 87 (ssRNA) RNA: GGGAGCUCAGAAUAAACGCUCAAGCUCUGGGAUGAUGCCCACUGUCCAGCAUCUUCGACAUGAGGCCCGGAUCCGGC
9.10
